Tested on: rodent lifetime carcinogenesis bioassay, tumor incidence TD50
test_summary: carcinogenic potency in animals, long-term in vivo studies, CPDB compilation (AID 1745844)
run_conditions: mouse; strain B6C3F1; females; in feed; site: liver; lesion: hepatocellular carcinoma; dosed 78 weeks; study length 90 weeks
readout_label: TD50

Enquiry: Item under review: "CCOC(=O)C(O)(c1ccc(Cl)cc1)c1ccc(Cl)cc1" . Reported TD50?
Return: 848 mg/kg/day

###

Test system: rodent lifetime carcinogenesis bioassay, tumor incidence TD50
test_summary: carcinogenic potency in animals, long-term in vivo studies, CPDB compilation (AID 1745844)
run_conditions: rat; strain Fischer 344; females; by gavage; site: any site (literature study); lesion: several types; types named in the paper; dosed 103 weeks; study length 105 weeks
The source made the active and inactive calls. No rule for the calls is given here.
readout_label: carcinogen call

| line_notation | result |
| --- | --- |
| C=CC(=O)NCO | negative (inactive) |
| O=C1CCC(=O)O1 | negative (inactive) |
| ClC(Cl)(Cl)C(Cl)(Cl)Cl | negative (inactive) |
| Nc1cc([N+](=O)[O-])ccc1O | negative (inactive) |
